Cited source: the supplement of paper PMC9170038

# Tested on: MS2 coat protein
# measurementNotes: apparent KD of MS2 coat protein; designed switch direction (-1 OFF switch, 1 ON switch): 1; higher = weaker reporter binding
# runConditions: Eterna round: R95; input ligand: microRNA oligo, concentration not stated
observedProperty: apparent KD of MS2 coat protein (nM)
Answer format: numeric, nM implied, no suffix.

## Input Fill in: apparent KD of MS2 coat protein of AGUCCAGCCUGAGCUGGACAAAAGCAUGUACAUGAGGAUCACCCAUGUCAUGUACAAGCUUUUUGCACGUCUUAAAA [Mat - hsa-mir-208a - Mod of JL - D13] (puzzle: Sensor for hsa-mir-208a) is ___
## Output 16.4

## Input Fill in: apparent KD of MS2 coat protein of GACAAUCUAUCUGAGGAUAUCAUGAAUAAAACAUGAGGAUCACCCAUGUGCAGGAUAACUGCAAAUGAGAAGGCAGAUAGAUUGU [Mat - Same State 2 - Mod - D7] (puzzle: Same State 2) is ___
## Output 24

## Input Fill in: apparent KD of MS2 coat protein of AGUCCAGCAAGAGCUGGACAAAAGCAUGUACAUGAGGAUCACCCAUGUUCAUGUACAAGCUUUUUGCUCGUCAAAAG [Mat - hsa-mir-208a - Mod of JL - 72] (puzzle: Sensor for hsa-mir-208a) is ___
## Output 19.9

## Input Fill in: apparent KD of MS2 coat protein of GUUAAACAUGAGGAUCACCCAUGUCAUCUAAGUCGAGGAUAUGGGAAUUAAUUAAUUAAACCAGAAGGCGAAAAUG [Mat - Same State 1 - D96] (puzzle: Same State 1) is ___
## Output 174

## Input Fill in: apparent KD of MS2 coat protein of GGCAGGUGCAGGCUUGCUUGCACCUGGAAACAUGAGGAUCACCCAUGUUUGGGACAAGCUUUGCUCUUCGUCUUUUC [JL ViennaUCT Isusreraar mod 5] (puzzle: Sensor for hsa-mir-208a) is ___
## Output 55.1
